Just for reference, the supplement of paper PMC10127200 is where these values come from.

As shown below, each of these compounds has a reported Euclidean distance value.
System: A549
Test: Euclidean distance of Cell Painting phenotypic profile (signed KS, 77 features) to DMSO centroid (dimensionless distance); 5 or 10 uM (library dependent); higher = stronger phenotypic change vs DMSO (phenoactivity)
Details: 48 h
Where a name gives a salt, the structure may show the parent alone.
// no unit, no text: just the number

Guide cases for Euclidean distance, answers given:
INSERT INTO assay_data (compound, measured_property, recorded_value) VALUES
  ('C[C@@H](C(=O)Nc1ccc(Cl)cc1)C1CCC(c2ccnc3ccc(F)cc23)CC1 (stereo partly drawn)', 'Euclidean distance', 2.05),
  ('C=C1/C(=C\C=C2/CCC[C@]3(C)[C@@H]([C@H](C)/C=C/[C@H](C)C(C)C)CC[C@@H]23)C[C@@H](O)C[C@@H]1O', 'Euclidean distance', 1.49),
  ('O=C1N=C(O)NC1(c1ccccc1)c1ccccc1 [Phenytoin sodium]', 'Euclidean distance', 0.743),
  ('CNCc1cc(-c2ccccc2F)n(S(=O)(=O)c2cccnc2)c1 [Vonoprazan Fumarate (TAK-438)]', 'Euclidean distance', 0.5),
  ('O=C(O)COCCN1CCN([C@H](c2ccccc2)c2ccc(Cl)cc2)CC1 [Levocetirizine Dihydrochloride]', 'Euclidean distance', 1.39);

Input Cc1cc(NS(=O)(=O)c2ccc(N)cc2)no1 [Sulfamethoxazole sodium] . Output Euclidean distance: 0.64

// Euclidean distance value for Nc1ccn([C@@H]2O[C@H](CO)[C@@H](O)[C@H]2O)c(=O)n1 : 0.659

Euclidean distance for Cn1c([N+](=O)[O-])cnc1COC(N)=O is 0.834

====

Test system: HEPG2
Test: Euclidean distance of Cell Painting phenotypic profile (signed KS, 77 features) to DMSO centroid (dimensionless distance); 5 or 10 uM (library dependent); higher = stronger phenotypic change vs DMSO (phenoactivity)
Settings: 48 h
Counter-ions that a name gives are not always drawn.
Here, each record is paired with measured Euclidean distance data.
Write the number on its own, no unit after it.

Worked cases, answers included:
INSERT INTO measurements (compound, recorded_value) VALUES
  ('COCCCC/C(=N\OCCN)c1ccc(C(F)(F)F)cc1 [Fluvoxamine maleate]', 1.1),
  ('CCc1cc2c(cc1N1CCC(N3CCOCC3)CC1)C(C)(C)c1[nH]c3cc(C#N)ccc3c1C2=O [Alectinib hydrochloride]', 0.611),
  ('CC(=O)Oc1ccccc1C(=O)Nc1ncc([N+](=O)[O-])s1 [Nitazoxanide]', 1.32),
  ('CCn1cc(C(=O)O)c(=O)c2ccc(C)nc21 [Nalidixic acid]', 0.602),
  ('Nc1nc(N)c2nc(-c3cccc(O)c3)c(-c3cccc(O)c3)nc2n1', 2.84);

Measured on HEPG2, C=CC1=C(C(=O)O)N2C(=O)[C@@H](NC(=O)/C(=N\O)c3csc(N)n3)[C@H]2SC1 [Cefdinir] has a documented Euclidean distance of 1.17

Entry NCc1ccccc1CC(=O)N[C@@H]1C(=O)N2C(C(=O)O)=C(CSc3nnnn3CC(=O)O)CS[C@H]12 [Ceforanide] , tested on HEPG2, has a reported Euclidean distance of 0.834

Tested on HEPG2, the item CCN(CC)C(=O)c1cccnc1 [Nikethamide] showed Euclidean distance equal to 0.66

# lookup: COc1cc(OC)c(NC(=O)Nc2cc(C)on2)cc1Cl on HEPG2, Euclidean distance = 0.834
